Each recorded value in this set is attributed to PubChem BioAssay.

target_or_system: Pantothenate synthetase (Mycobacterium tuberculosis (strain ATCC 25618 / H37Rv)) (UniProt P9WIL5)
Sequence (P9WIL5 whole entry, looked up): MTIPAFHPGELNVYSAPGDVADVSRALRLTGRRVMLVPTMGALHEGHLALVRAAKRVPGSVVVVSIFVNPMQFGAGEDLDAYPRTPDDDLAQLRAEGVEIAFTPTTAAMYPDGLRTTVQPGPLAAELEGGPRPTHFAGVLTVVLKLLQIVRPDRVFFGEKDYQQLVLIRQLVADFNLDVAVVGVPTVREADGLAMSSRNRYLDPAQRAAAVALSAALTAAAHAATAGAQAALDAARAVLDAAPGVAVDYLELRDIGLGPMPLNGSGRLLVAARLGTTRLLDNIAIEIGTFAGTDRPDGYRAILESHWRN
measurement_protocol: Coupled enzyme confirmation of inhibitors against recombinant Mtb PanC (AID 375);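 further: 0% = full reaction with vehicle and 100% = no enzyme background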
condition: coupled enzyme assay; at 10 µM, stronger effect = higher value
Answer each item with its documented inhibition.
Please reply with the bare figure in % and do not write the unit itself.

**Query** Item O=C(O)c1ccc(C2SCC(=O)N2Cc2ccccc2)cc1 (stereo unspecified) has what recorded inhibition?
**Result** 2

**Query** Do the same for "c1ccc(N2CCN(Cc3ccnc4ccccc34)CC2)cc1" please
**Result** 2

**Query** Do the same for CCOCCCNC(=O)C1CCC(=O)N1CCc1ccccc1 (stereo unspecified) please
**Result** 5

**Query** Do the same for "COc1ccc(/C=C(/C#N)c2cccnc2)cc1OC" please
**Result** 8

**Query** Do the same for "CCCN(CCC)CCNS(=O)(=O)c1ccc2c(c1)oc(=O)n2C" please
**Result** 2

**Query** Do the same for "COc1cc(NS(=O)(=O)c2ccc(N)cc2)nc(OC)n1" please
**Result** 0

**Query** Do the same for CCOc1cccc(C(=O)N2CCCCC2c2cccnc2)c1 (stereo unspecified) please
**Result** 0

**Query** Do the same for "Oc1cnc2ccccc2c1CN1CCOCC1" please
**Result** 4

**Query** Do the same for COc1ccc(/C(O)=C2/C(=O)C(=O)N(Cc3cccnc3)C2c2ccncc2)cc1F (stereo unspecified) please
**Result** 4

**Query** Do the same for "CCN(Cc1cc2ccccc2[nH]c1=O)S(=O)(=O)c1ccccc1" please
**Result** 0

**Query** Do the same for "Cc1nn(-c2ccccc2)c(C)c1/C=N/O" please
**Result** 0

**Query** Do the same for "CC1=C(C#N)C(c2ccc3ncccc3c2)C(C#N)=C(C)N1" please
**Result** 4

**Query** Do the same for "CCCCn1nnnc1SCC(=O)N1CCN(C(=O)c2ccco2)CC1" please
**Result** 0

**Query** Do the same for "O=C(OCc1cc2ccccc2[nH]c1=O)c1ccncc1" please
**Result** 7

**Query** Do the same for CCC(C)(C)n1nnnc1C(c1ccc(OC)c(OC)c1)N1CCN(c2ccc(F)cc2)CC1 (stereo unspecified) please
**Result** 0

**Query** Do the same for "O=C(CSc1nnnn1C1CCCC1)Nc1cccc(NC(=O)c2ccco2)c1" please
**Result** 5

**Query** Do the same for "CCOC(=O)N1CCC2(CC1)CC(=O)c1c(ccc3oc(C(=O)O)c(C)c13)O2" please
**Result** 0

**Query** Do the same for "Cc1cc(C)nc(-n2nc(C)cc2NC(=O)c2ccc(Br)o2)n1" please
**Result** 0

**Query** Do the same for "CCCN(CCC)S(=O)(=O)c1ccc(C(=O)Nc2nnc(-c3cccc(OC)c3)o2)cc1" please
**Result** 6

**Query** Do the same for "CCOc1nc(SCCOc2ccccc2)nc(N(C)C)n1" please
**Result** 4

**Query** Do the same for "CCCc1cc(C(=O)Nc2sc(C)c(C)c2C(=O)OCC)no1" please
**Result** 3

**Query** Do the same for "Cn1c(=O)n(CC(=O)OCc2ccccc2)c(=O)c2c1nc1n2CCCN1C1CCCCC1" please
**Result** 0

**Query** Do the same for "CCCCc1nc(NCCN2CCOCC2)c(C#N)c2c1COC(C)(C)C2" please
**Result** 0

**Query** Do the same for CC(C)COC(=O)C1C2C=CC3(CN(C(C)c4ccc(Br)cc4)C(=O)C13)O2 (stereo unspecified) please
**Result** 8

**Query** Do the same for "CCOC(=O)Cn1c(=O)c(-c2ccccc2N)nc2ccccc21" please
**Result** 3

**Query** Do the same for "CCCCC1C(=O)N(c2ccccc2)N(c2ccccc2)C1=O" please
**Result** 0

**Query** Do the same for "O=C(CN1CCN(Cc2ccccc2)CC1)Nc1ccc(Cl)cn1" please
**Result** 3

**Query** Do the same for "N#Cc1ccc(-c2csc(NC(=O)C3CC3)n2)cc1" please
**Result** 0

**Query** Do the same for CC1(C)Cc2c(sc3c2C(=O)NC(c2cccnc2)N3)CO1 (stereo unspecified) please
**Result** 7

**Query** Do the same for COc1ccc(C2C3=C(CCCC3=O)Nc3nc(SCc4ccccc4)nn32)cc1OC (stereo unspecified) please
**Result** 0

**Query** Do the same for Cc1cc(NC(=O)CCC(=O)N(c2cccnc2)C(C(=O)NC2CCCC2)c2ccccc2F)no1 (stereo unspecified) please
**Result** 0

**Query** Do the same for "CCNc1nc(N2CCCCC2)nc(-n2nnc(C(=O)OCC)c2C)n1" please
**Result** 2

**Query** Do the same for O=C(NCc1ccco1)c1ccc2c(=O)n(CC3CCCO3)c(=S)[nH]c2c1 (stereo unspecified) please
**Result** 3

**Query** Do the same for "c1ccc(N2CCN(Cc3cn4cccnc4n3)CC2)cc1" please
**Result** 3

**Query** Do the same for "CN1[C@@H](CC(=O)c2ccccc2)CCC[C@H]1C[C@H](O)c1ccccc1" please
**Result** 8

**Query** Do the same for "COC(=O)c1ccccc1NC(=O)c1cc(-c2ccc(OC)c(OC)c2)on1" please
**Result** 0

**Query** Do the same for "OCCNc1nc2ccc(Cl)cc2[nH]1" please
**Result** 0

**Query** Do the same for "CCN(CC)S(=O)(=O)c1ccc2oc(C(=O)O)c(C)c2c1" please
**Result** 0

**Query** Do the same for O=C1c2oc3ccccc3c(=O)c2C(c2cccnc2)N1Cc1ccco1 (stereo unspecified) please
**Result** 0

**Query** Do the same for CCC(CO)Nc1ncnc2c1cnn2-c1ccc(Cl)cc1 (stereo unspecified) please
**Result** 6

**Query** Do the same for "CCN(CC)Cc1csc(C(N)=O)c1" please
**Result** 5

**Query** Do the same for "Cc1cc(NC(=O)CSc2nccn2-c2ccc(Cl)cc2)no1" please
**Result** 0

**Query** Do the same for "O=C(Nc1cccnc1)c1ccc2c(c1)OCO2" please
**Result** 0

**Query** Do the same for "CCCCC(=O)Nc1nn(CCC)c2nc3ccccc3cc12" please
**Result** 0

**Query** Do the same for COc1ccc(OC)c(C2C(C(=O)Nc3cccnc3)=C(C)NC3=C2C(=O)CCC3)c1 (stereo unspecified) please
**Result** 0

**Query** Do the same for CCOC(=O)C1=C(CS(=O)(=O)c2ccc(F)c(C)c2)NC(=O)NC1c1ccc(O)c(O)c1 (stereo unspecified) please
**Result** 7

* * *

target_or_system: Pantothenate synthetase (Mycobacterium tuberculosis (strain ATCC 25618 / H37Rv)) (UniProt P9WIL5)
measurement_protocol: Coupled enzyme confirmation of inhibitors against recombinant Mtb PanC (AID 375);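 further: 0% = full reaction with vehicle and 100% = no enzyme background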
condition: coupled enzyme assay; at 10 µM, stronger effect = higher value
experimental_readout: inhibition (%)
Please reply with the bare figure in % and do not write the unit itself.

**Query** Item CCc1ccc(NC(=O)CS(=O)CC(=O)NCC2OCCc3ccccc32)cc1 (stereo unspecified) has what recorded inhibition?
**Result** 0

**Query** Do the same for CSc1ccccc1NC(=O)C1CCCO1 (stereo unspecified) please
**Result** 7

**Query** Do the same for "O=C(c1ccc(Cl)c(F)c1F)N1CCCC1" please
**Result** 3

**Query** Do the same for Cn1c2c(c(=O)[nH]c1=O)C(NC(=O)c1ccco1)(C(F)(F)F)C(=O)N2 (stereo unspecified) please
**Result** 0

**Query** Do the same for "Cn1c(=O)c2c(nc(CN3CCc4ccccc4C3)n2Cc2cccc(Cl)c2)n(C)c1=O" please
**Result** 0

**Query** Do the same for O=C(NC1(C(F)(F)F)NC(=O)N(Cc2ccco2)C1=O)c1cccnc1 (stereo unspecified) please
**Result** 11

**Query** Do the same for "COCCn1c(CN(Cc2ccccc2)Cc2ccccc2)nc2c1c(=O)n(C)c(=O)n2C" please
**Result** 0

**Query** Do the same for "Cc1cc(NC(=O)CSc2nc(CCC3CCCC3)nc3ccccc23)no1" please
**Result** 3

**Query** Do the same for CCN(CC)C(c1ccc(C)cc1)c1nnnn1C1CCCCC1 (stereo unspecified) please
**Result** 0

**Query** Do the same for "CCn1c(C)nc2cc(C(=O)OCCC(F)(F)F)ccc21" please
**Result** 0

**Query** Do the same for NC(=O)C(Cc1ccccc1)NS(=O)(=O)c1ccc(N2CCCC2=O)cc1 (stereo unspecified) please
**Result** 0

* * *

Answer each item with its documented inhibition.
target_or_system: Pantothenate synthetase (Mycobacterium tuberculosis (strain ATCC 25618 / H37Rv)) (UniProt P9WIL5)
measurement_protocol: Coupled enzyme confirmation of inhibitors against recombinant Mtb PanC (AID 375);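 further: 0% = full reaction with vehicle and 100% = no enzyme background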
condition: coupled enzyme assay; at 10 µM, stronger effect = higher value
Please reply with the bare figure in % and do not write the unit itself.

**Query** Item COc1ccc(Cn2nnnc2C(c2cccs2)N2CCOCC2)cc1 (stereo not drawn) has what recorded inhibition?
**Result** 3

**Query** Do the same for "CCCCCn1c(CN2CCN(C(=O)c3ccco3)CC2)nc2c1c(=O)n(C)c(=O)n2C" please
**Result** 1

**Query** Do the same for "CCc1nnc(NC(=O)C2CCN(c3nccc(C)n3)CC2)s1" please
**Result** 8

**Query** Do the same for "Nc1nc(F)nc2c1ncn2[C@@H]1O[C@H](CO)[C@@H](O)[C@@H]1O" please
**Result** 0

**Query** Do the same for "N#Cc1nc(-c2ccccc2Cl)oc1N1CCOCC1" please
**Result** 0

**Query** Do the same for CN=c1sc2ccccc2n1CC(O)COCc1ccco1 (stereo not drawn) please
**Result** 0

**Query** Do the same for "CCOc1ccc(CCNc2nc3c(c(=O)n(C)c(=O)n3C)n2CC)cc1OCC" please
**Result** 0

**Query** Do the same for "COc1ccc(Br)cc1-c1noc(-c2ccccc2)n1" please
**Result** 4

**Query** Do the same for "O=C(NCc1cccnc1)c1ccccc1Br" please
**Result** 7

**Query** Do the same for CCN1C(=O)C2(C(C#N)=C(N)Oc3n[nH]c(C(C)C)c32)c2ccccc21 (stereo not drawn) please
**Result** 1

**Query** Do the same for "Cc1ccc(C(=O)OCC(=O)Nc2ccc3c(c2)OCO3)o1" please
**Result** 4

**Query** Do the same for "CCOC(=O)n1c(=O)oc2cc(S(=O)(=O)N3CCCCC3)ccc21" please
**Result** 7

**Query** Do the same for COc1cc(OC)c2c(c1)OC(c1ccc(OC)c(OC)c1)C(O)C2=O (stereo not drawn) please
**Result** 1

**Query** Do the same for "CC(C)(C)c1cc(NC(=O)c2cc(F)c(F)c(F)c2F)no1" please
**Result** 0

**Query** Do the same for "Cc1ccccc1-n1c(=O)c2ccccc2n2nnnc12" please
**Result** 0

**Query** Do the same for "Cc1ccc(Cn2c(C)c3cnn(CC(=O)N4CCC5(CC4)OCCO5)c(=O)c3c2C)cc1" please
**Result** 0

**Query** Do the same for O=C(NCc1cccs1)C1CC(c2ccccc2O)=NO1 (stereo not drawn) please
**Result** 5

**Query** Do the same for "COc1ccc(N2C(=O)C(Cl)=C(Nc3c(C)n(C)n(-c4ccccc4)c3=O)C2=O)cc1" please
**Result** 5

**Query** Do the same for "COc1ccc(-n2c(Cc3cccn3C)nnc2SCC(N)=O)cc1" please
**Result** 0

**Query** Do the same for CC(C)(C)NC(=O)CC(CC(=O)O)c1ccccc1 (stereo not drawn) please
**Result** 0

**Query** Do the same for "O=c1c2c(nc3nc(CCc4ccccc4)[nH]n13)CCC2" please
**Result** 9

**Query** Do the same for CC(=O)OC(C(=O)NC1CCCCC1)c1ccncc1 (stereo not drawn) please
**Result** 10

**Query** Do the same for "Cc1ccc(S(=O)(=O)N(C)CC(=O)NC2CC(C)(C)NC(C)(C)C2)cc1" please
**Result** 0
